Sourced from PubChem BioAssay (NCI)

# System: SK-MEL-28 melanoma
# MEASUREMENT DESCRIPTION: NCI tumour cell line growth inhibition, 48 h
TGI listing for selected compounds.
ATTRIBUTE MEASURED: TGI

COMPOUND	VALUE MEASURED
Nc1c2c(nc3ccccc13)CCCc1ccccc1-2	25 µM
Oc1ccccc1C=Nc1ccccc1N=Cc1ccccc1O.[Cu+2]	23.2 µM
Brc1ccc(C2SCc3nc4ccccc4n32)cc1 (stereo unspecified)	16.7 µM
Cn1c2ccccc2c2nnc(NNCc3ccccn3)nc21	11.2 µM
COCn1c(C)c(C)c2c(=O)oc(C)nc21	> 100 µM
CCCCS(=O)CC(CO)NC(=O)/C=C/c1c(C)[nH]c(=O)[nH]c1=O (stereo unspecified)	44.5 µM
CC(C)(C)N=CN(C=C(c1ccccc1)c1ccccc1)C1CCCCC1	> 100 µM
Nc1ncnc2nn(C3OC(CO)C(O)C3O)nc12 (stereo unspecified)	> 100 µM
CC1=C/C(=C2/N=C(N(C)C)SS2)C(C)=N1	> 100 µM
CCOP(=O)(CC(=O)C1=C(O)C(CCCCNC(=O)OC(C)(C)C)N(Cc2ccccc2)C1=O)OCC (stereo unspecified)	> 100 µM
Cc1ccc([N+](=O)[O-])cc1S(=O)(=O)Nc1ccc(C2=NN(S(=O)(=O)c3cc([N+](=O)[O-])ccc3C)C(c3ccco3)C2)cc1 (stereo unspecified)	> 100 µM
